Biological target: hAM2 receptor (CALCRL:RAMP3) (Homo sapiens, UniProt O60896+Q16602)
Construct: expressed in transfected cells; host or cells: GeneBLAzer CALCRL:RAMP3-CRE-bla Freestyle 293F
Sequence (Q16602 23-461): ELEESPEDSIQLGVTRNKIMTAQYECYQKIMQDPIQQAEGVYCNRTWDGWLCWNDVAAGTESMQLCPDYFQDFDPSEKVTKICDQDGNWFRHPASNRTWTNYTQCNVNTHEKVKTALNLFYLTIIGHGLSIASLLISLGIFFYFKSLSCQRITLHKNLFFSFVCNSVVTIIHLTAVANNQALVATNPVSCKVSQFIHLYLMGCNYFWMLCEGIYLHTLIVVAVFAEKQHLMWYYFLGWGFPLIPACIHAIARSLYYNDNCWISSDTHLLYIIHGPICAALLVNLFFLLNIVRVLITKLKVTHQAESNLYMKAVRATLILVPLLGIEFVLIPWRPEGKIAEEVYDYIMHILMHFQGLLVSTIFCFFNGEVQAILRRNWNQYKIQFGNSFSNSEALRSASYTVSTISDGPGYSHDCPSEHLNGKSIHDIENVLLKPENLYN
Sequence (O60896 24-148): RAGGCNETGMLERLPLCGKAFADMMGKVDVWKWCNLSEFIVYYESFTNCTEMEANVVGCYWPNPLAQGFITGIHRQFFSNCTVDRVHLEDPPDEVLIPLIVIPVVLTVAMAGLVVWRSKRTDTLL
Test: AM2 receptor antagonist activity measured by cAMP assay (HTRF)
Assay type: cell-based
Details: % MPE: percent of the maximal possible effect; agonist human adrenomedullin; read-out: hAM2-R Efficacy Antag (%) Ave
Numbered stars: 1 amine (or outer) side, 2 acyl side, 3 side chain; on linkers, the order of the positions; unused ones are H or OH. Bridge positions count the residues as written; N and C are the ends. Square brackets hold non-standard residues; d marks the D form. Peptide text beside a SMILES is read from it. * marks the point of attachment. Phe(3-CONH2) = NC(=O)c1cccc(C[C@H](N)C(=O)O)c1; X5 = O=C([C@H](Cc1ccc(CO)cc1)N[*:1])[*:2]; Orn(iPr) = CC(C)NCCC[C@H](N)C(=O)O; Orn(Me2) = CN(C)CCC[C@H](N)C(=O)O; Oxazole2carbonyl = O=C(c1ncco1)*; 3Pal = N[C@@H](Cc1cccnc1)C(=O)O; Picolinoyl = O=C(c1ccccn1)*; ΔPro = O=C(O)[C@@H]1C=CCN1; X1 = O=C(c1ncccc1F)*
observedProperty: Emax (%)
Numbers only; they are read as %.

Solved entries:
CC(C)NCCC[C@@H]1NC(=O)[C@@H](NC(=O)[C@H](Cc2ccc(O)cc2)NC(=O)[C@H](NC(=O)c2ccccn2)C(C)C)CSSC[C@@H](C(=O)N[C@@H](Cc2cccnc2)C(N)=O)NC(=O)[C@H](Cc2ccc(CO)cc2)NC(=O)[C@@H]2C=CCN2C(=O)CNC(=O)[C@H](C(C)C)NC(=O)[C@H](CC(=O)O)NC1=O [Compound 69] (Picolinoyl-[dV]YC[Orn(iPr)]DVG[ΔPro][X5]C[3Pal]-NH2; disulfide 3-10)    100
CC(C)[C@@H]1NC(=O)[C@H](CC(=O)O)NC(=O)[C@H](CCCN(C)C)NC(=O)[C@@H](NC(=O)[C@H](Cc2ccc(O)cc2)NC(=O)[C@H](NC(=O)c2ncccc2F)C(C)C)CSSC[C@@H](C(=O)N[C@@H](Cc2cccnc2)C(N)=O)NC(=O)[C@H](Cc2ccccc2)NC(=O)[C@@H]2CCCN2C(=O)CNC1=O [Compound 46] (X1-[dV]YC[Orn(Me2)]DVGPFC[3Pal]-NH2; disulfide 3-10)    99

Alright, here's another compound for you.
Exercise: For the compound shown here, CC(C)NCCC[C@@H]1NC(=O)[C@@H](NC(=O)[C@H](Cc2ccc(O)cc2)NC(=O)[C@H](NC(=O)c2ncco2)C(C)C)CSSC[C@@H](C(=O)N[C@@H](Cc2cccnc2)C(N)=O)NC(=O)[C@H](Cc2cccc(C(N)=O)c2)NC(=O)[C@@H]2C=CCN2C(=O)CNC(=O)[C@H](C(C)C)NC(=O)[C@H](CC(=O)O)NC1=O [Compound 67] (Oxazole2carbonyl-[dV]YC[Orn(iPr)]DVG[ΔPro][Phe(3-CONH2)]C[3Pal]-NH2; disulfide 3-10) , give the reported Emax.
Key: 99

###

Target: hAM2 receptor (CALCRL:RAMP3) (Homo sapiens, UniProt O60896+Q16602)
Construct: expressed in transfected cells; host or cells: GeneBLAzer CALCRL:RAMP3-CRE-bla Freestyle 293F
Experiment: AM2 receptor antagonist activity measured by cAMP assay (HTRF)
Assay type: cell-based
Conditions: selectivity ratio for hCGRP over hAM2, calculated from the IC50 values
Numbered stars: 1 amine (or outer) side, 2 acyl side, 3 side chain; on linkers, the order of the positions; unused ones are H or OH. Bridge positions count the residues as written; N and C are the ends. Square brackets hold non-standard residues; d marks the D form. Peptide text beside a SMILES is read from it. * marks the point of attachment. Phe(3-CH2NH2) = O=C([C@H](Cc1cccc(CN[*:3])c1)N[*:1])[*:2]; Phe(2-CONH2) = NC(=O)c1ccccc1C[C@H](N)C(=O)O; Benzoyl(4-F) = O=C(c1ccc(F)cc1)*; 3Pal = N[C@@H](Cc1cccnc1)C(=O)O; X4 = O=C(c1ncccc1[N+](=O)[O-])*; ΔPro = O=C(O)[C@@H]1C=CCN1; Dap = NC[C@H](N)C(=O)O; X12 = Cc1cccnc1C(=O)*; Bz = O=C(c1ccccc1)*; X6 = O=C(c1ccncn1)*
selectivity ratio CGRP/AM2 for assorted compounds
Give a plain numeric answer without units written out.

Solved entries:
CC(C)[C@@H]1NC(=O)[C@H](CC(=O)O)NC(=O)[C@H](CCCNC(=N)N)NC(=O)[C@@H](NC(=O)[C@H](Cc2ccc(O)cc2)NC(=O)[C@H](NC(=O)c2ncccc2[N+](=O)[O-])C(C)C)CSSC[C@@H](C(=O)N[C@@H](Cc2cccnc2)C(N)=O)NC(=O)[C@H](Cc2ccccc2)NC(=O)[C@@H]2CCCN2C(=O)CNC1=O [Compound 50] (X4-[dV]YCRDVGPFC[3Pal]-NH2; disulfide 3-10)    46
Cc1cccnc1C(=O)N[C@@H](C(=O)N[C@@H](Cc1ccc(O)cc1)C(=O)N[C@H]1CSSC[C@@H](C(=O)N[C@@H](Cc2cccnc2)C(N)=O)NC(=O)[C@H](Cc2ccccc2)NC(=O)[C@@H]2CCCN2C(=O)CNC(=O)[C@H](C(C)C)NC(=O)[C@H](CC(=O)O)NC(=O)[C@H](CCCNC(=N)N)NC1=O)C(C)C [Compound 34] (X12-[dV]YCRDVGPFC[3Pal]-NH2; disulfide 3-10)    58
CC(C)[C@@H]1NC(=O)[C@H](CC(=O)O)NC(=O)[C@H](CCCNC(=N)N)NC(=O)[C@@H](NC(=O)[C@H](Cc2ccccc2C(N)=O)NC(=O)[C@H](NC(=O)c2ccncn2)C(C)C)CSSC[C@@H](C(=O)N[C@@H](Cc2cccnc2)C(N)=O)NC(=O)[C@H](Cc2cccc(CN)c2)NC(=O)[C@@H]2C=CCN2C(=O)CNC1=O [Compound 31] (X6-[dV][Phe(2-CONH2)]CRDVG[ΔPro][Phe(3-CH2NH2)]C[3Pal]-NH2; disulfide 3-10)    390
CC(C)[C@@H]1NC(=O)[C@H](CC(=O)O)NC(=O)[C@H](CN)NC(=O)[C@@H](NC(=O)[C@H](Cc2ccc(O)cc2)NC(=O)[C@H](NC(=O)c2ccc(F)cc2)C(C)C)CSSC[C@@H](C(=O)N[C@@H](Cc2cccnc2)C(N)=O)NC(=O)[C@H](Cc2ccc(O)cc2)NC(=O)[C@@H]2CCCN2C(=O)CNC1=O [Compound 7] ({Benzoyl(4-F)}-[dV]YC[Dap]DVGPYC[3Pal]-NH2; disulfide 3-10)    334

Alright, here's another compound for you.
Exercise: For the compound shown here, CC(C)[C@@H]1NC(=O)[C@H](CC(=O)O)NC(=O)[C@H](CN)NC(=O)[C@@H](NC(=O)[C@H](Cc2ccc(O)cc2)NC(=O)[C@H](NC(=O)c2ccccc2)C(C)C)CSSC[C@@H](C(=O)N[C@@H](Cc2cccnc2)C(N)=O)NC(=O)[C@H](Cc2ccccc2)NC(=O)[C@@H]2CCCN2C(=O)CNC1=O [Ref. Cpd. 2, reference compound] (Bz-[dV]YC[Dap]DVGPFC[3Pal]-NH2; disulfide 3-10) , give the reported selectivity ratio CGRP/AM2.
Key: 387

###

Target: hCGRP receptor (CALCRL:RAMP1) (Homo sapiens, UniProt O60894+Q16602)
Construct: host or cells: GeneBLAzer CALCRL:RAMP1-CRE-bla Freestyle 293F
Sequence (Q16602 23-461): as the sequence (Q16602 23-461) above
Sequence (O60894 27-148): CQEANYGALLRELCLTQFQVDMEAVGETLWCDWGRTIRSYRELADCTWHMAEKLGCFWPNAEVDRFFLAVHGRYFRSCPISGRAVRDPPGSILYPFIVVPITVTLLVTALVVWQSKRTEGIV
Assay: CGRP receptor antagonist activity measured by cAMP assay (HTRF)
Assay type: cell-based
Settings: % MPE: percent of the maximal possible effect; agonist human α-CGRP; read-out: hCGRP-R Efficacy Antag (%) Ave
Bridge positions count the residues as written; N and C are the ends. Square brackets hold non-standard residues; d marks the D form. Peptide text beside a SMILES is read from it. * marks the point of attachment. Picolinoyl(3,5-F2) = O=C(c1ncc(F)cc1F)*; Imidazole4carbonyl = O=C(c1cnc[nH]1)*; Benzoyl(4-F) = O=C(c1ccc(F)cc1)*; 3Pal = N[C@@H](Cc1cccnc1)C(=O)O
observedProperty: Emax (%)
Numbers only; they are read as %.

Solved entries:
CC(C)[C@@H]1NC(=O)[C@H](CC(=O)O)NC(=O)[C@H](CCCNC(=N)N)NC(=O)[C@@H](NC(=O)[C@H](Cc2ccc(O)cc2)NC(=O)[C@H](NC(=O)c2ccc(F)cc2)C(C)C)CSSC[C@@H](C(=O)N[C@@H](Cc2cccnc2)C(N)=O)NC(=O)[C@H](Cc2cccnc2)NC(=O)[C@@H]2CCCN2C(=O)CNC1=O [Compound 2] ({Benzoyl(4-F)}-[dV]YCRDVGP[3Pal]C[3Pal]-NH2; disulfide 3-10)    100
CC(C)[C@@H]1NC(=O)[C@H](CC(=O)O)NC(=O)[C@H](CCCNC(=N)N)NC(=O)[C@@H](NC(=O)[C@H](Cc2ccc(O)cc2)NC(=O)[C@H](NC(=O)c2ncc(F)cc2F)C(C)C)CSSC[C@@H](C(=O)N[C@@H](Cc2cccnc2)C(N)=O)NC(=O)[C@H](Cc2ccccc2)NC(=O)[C@@H]2CCCN2C(=O)CNC1=O [Compound 35] ({Picolinoyl(3,5-F2)}-[dV]YCRDVGPFC[3Pal]-NH2; disulfide 3-10)    100

Exercise: For the compound shown here, CC(C)[C@@H]1NC(=O)[C@H](CC(=O)O)NC(=O)[C@H](CCCNC(=N)N)NC(=O)[C@@H](NC(=O)[C@H](Cc2ccc(O)cc2)NC(=O)[C@H](NC(=O)c2c[nH]cn2)C(C)C)CSSC[C@@H](C(=O)N[C@@H](Cc2cccnc2)C(N)=O)NC(=O)[C@H](Cc2ccccc2)NC(=O)[C@@H]2CCCN2C(=O)CNC1=O [Compound 47] (Imidazole4carbonyl-[dV]YCRDVGPFC[3Pal]-NH2; disulfide 3-10) , give the reported Emax.
Key: 100
